Test system: KM12 colon
Assay: NCI-60 one-dose screen, 48 h
Conditions: 10 µM unless noted
The panel holds about 83,000 compounds, 20% with a hit somewhere; the sample as a whole holds those more often. Calls of active or inactive are those of the source. Rule for the calls: active = growth percent below 10; inactive = the rest.
In this exercise, the only acceptable responses are class 1 = active, class 0 = inactive

Worked set:
compound	classLabel
CN(C)CCN1C(=O)c2cccc3c(N)ccc(c23)C1=O	class 0
O=C(COc1cccc(/C=C2\COc3ccc(Cl)cc3C2=O)c1)c1ccc(Cl)cc1	class 0
COc1cc(/C=C/c2cc(O)c3cc(C(C)=O)c(=O)oc3c2)cc2c1O[C@]1(C)CC[C@@H](O)C(C)(C)[C@H]1C2	class 0
CCCCCCN(CCCCCC)CCC(O)c1ccc2ccccc2c1 (stereo not given)	class 0

Could you now consider this next compound?
Ask: Returns: the outcome recorded for NC(=O)c1cc(Cl)ccc1NC(=O)/C=C/c1ccccc1 in this assay.
Reply: class 1

###

Tested on: SK-MEL-2 melanoma
Assay: NCI-60 one-dose screen, 48 h (100 = growth as untreated, 0 = no growth, -100 = all killed)
Settings: 10 µM unless noted
Compounds without any hit were thinned out: in the full panel of roughly 83,000, 20% have a hit. Calls of active or inactive are those of the source. The calls were made as follows: active = growth percent below 10; inactive = the rest.
# key: entry, value: growth

molecule	observedValue
C=C(C)C1CC(O)C2(C)CCCC3C2C1CC(C)C3(C)CC/C(C)=C/C(O)C1CCC(=O)c2c(OC)cc(OC)cc21 (stereo not drawn)	65.8% (inactive)
OCCNc1nccc(N2CCN(c3ccnc4cc(Cl)ccc34)CC2)n1	84.1% (inactive)

Ask: Request the reported growth associated with COc1ccc(-c2nn(-c3ccc(Cl)cc3)cc2-c2nc3ccccc3[nH]2)cc1
Reply: 101% (inactive)

Ask: Dear colleague, I am looking for the recorded growth of the following molecule: NNCCc1ccc(NC(=O)CCCc2ccc(/C=C/C(=O)NO)cc2)cc1
Reply: 52.4% (inactive)

Ask: Request the reported growth associated with COc1cc(-c2nn(C)nc2-c2cc3ccccc3s2)cc(OC)c1OC
Reply: 32.9% (inactive)

Ask: # lookup: growth of Cc1oc(-c2ccc(Cl)cc2Cl)cc1C(=O)Nc1nccs1
Reply: 102% (inactive)

Ask: Please give the measured growth for this molecule: O=[N+]([O-])c1ccc(Nc2nc(NCCN3CCOCC3)ncc2[N+](=O)[O-])cc1
Reply: 93.7% (inactive)

Ask: GET /values?readout=growth&item= COc1cccc(/C=C2\SC(=Nc3ccc(NC(C)=O)cc3)NC2=O)c1OC
Reply: 110% (inactive)

Ask: Give the measured growth of O=c1c2c3c(sc2nc(N/N=C/c2cn(-c4ccccc4)nc2-c2ccc(Cl)cc2)n1Cc1ccccc1)CCCC3 .
Reply: 103% (inactive)

Ask: What value of measured growth is listed for CN(C)S(=O)(=O)c1ccc(S(=O)(=O)Nc2cccc(Cl)c2N2CCCCC2)cc1 ?
Reply: 73.8% (inactive)

Ask: // query growth value for entry C=C(C)[C@@H]1CC[C@]2(C(=O)OC)CC[C@]3(C)[C@H](CC[C@@H]4[C@@]5(C)C/C(=C/c6ccc(OC)cc6)C(=O)C(C)(C)[C@@H]5CC[C@]43C)[C@@H]12
Reply: 104% (inactive)

Ask: Would you mind telling me what growth value was observed for CCCOc1cc2ccccc2cc1C(=O)Nc1nc(N)c2c(ccc3nccc32)[nH]1 ?
Reply: -49.6% (active)

Ask: Please report the recorded growth for Nc1n[nH]c2ccc([C@@H]3Nc4cc5c(cc4[C@H]4C6CCC(C6)[C@@H]34)C(=O)NC5)cc12 (stereo partly drawn) .
Reply: 48.8% (inactive)

Ask: I have this molecule here, COc1ccc(/C=C\c2cc(OC)c(OC)c(OC)c2)cc1OC(=O)c1cccc(Cn2cc(CCOC(=O)[C@H](N)Cc3cn(C)c4ccccc34)nn2)c1 , and I need its recorded growth.
Reply: 51.1% (inactive)

Ask: // query growth value for entry O=[N+]([O-])c1ccc2c(c1)Cc1cc(F)ccc1-2
Reply: 126% (inactive)

Ask: Returns the measured growth for the input molecule. Input: COc1ccc(/C=C/c2nc3ccccc3nc2/C=C/c2ccc(OC)cc2)cc1
Reply: 101% (inactive)

Ask: Dear colleague, I am looking for the recorded growth of the following molecule: C#CCOc1ccc2ncnc(Nc3cccc(CNC(=O)CCl)c3)c2c1
Reply: 49.6% [8.25 µM] (inactive)

Ask: Any idea what its growth is? The molecule is CON1C(=O)CC[C@]2(C)[C@H]3CC[C@@H]4C([C@@]5(C)CCC(=O)O5)CC[C@@]4(C)[C@]3(C)CC[C@H]2C1(C)C (stereo partly drawn)
Reply: 94.6% (inactive)
